biological target: HLA-C*06:02; experiment: IEDB peptide-MHC binding, purified MHC/direct/fluorescence; filed as Kd, often an IC50 or EC50 that approximates it; bounds were set here for any values at or beyond the usual limits of such assays; conditions: source organism: Rickettsia massiliae MTU5
pKd: −log10 of the molar value.
measuredQuantity: pKd

# sequence FMRFAFLSM ; its pKd = ≤ 4.70

###

target: HLA-A*32:01; experiment: IEDB peptide-MHC binding, purified MHC/competitive/radioactivity; filed as Kd, often an IC50 or EC50 that approximates it; bounds were set here for any values at or beyond the usual limits of such assays; conditions: source organism: Dengue virus 3 Martinique/1243/1999
pKd: −log10 of the molar value.
measuredQuantity: pKd

# sequence MGEDGCWYGM ; its pKd = ≤ 4.44
